test-system: hOCTN2 (Homo sapiens)
Sequence (O76082 whole entry): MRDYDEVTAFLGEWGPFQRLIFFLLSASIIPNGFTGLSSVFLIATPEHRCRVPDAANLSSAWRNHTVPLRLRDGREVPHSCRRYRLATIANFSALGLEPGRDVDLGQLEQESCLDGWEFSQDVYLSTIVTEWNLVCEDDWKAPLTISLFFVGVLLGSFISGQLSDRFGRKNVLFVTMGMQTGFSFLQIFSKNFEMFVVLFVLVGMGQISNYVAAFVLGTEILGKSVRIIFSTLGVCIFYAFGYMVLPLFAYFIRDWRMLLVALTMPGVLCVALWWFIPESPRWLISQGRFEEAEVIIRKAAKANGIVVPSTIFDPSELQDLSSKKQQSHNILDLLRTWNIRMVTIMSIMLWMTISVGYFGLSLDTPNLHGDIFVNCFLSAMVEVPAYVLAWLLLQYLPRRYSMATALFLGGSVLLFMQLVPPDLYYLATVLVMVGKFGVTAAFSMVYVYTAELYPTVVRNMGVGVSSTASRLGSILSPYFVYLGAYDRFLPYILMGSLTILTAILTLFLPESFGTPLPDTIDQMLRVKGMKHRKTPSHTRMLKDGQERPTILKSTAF
protocol-text: hOCTN2 competition uptake assay (3H-carnitine uptake into CHO-TREx-hOCTN2 cells)
Format: cell-based
Parameters: expressed in transfected cells; host or cells: CHO-TREx cells (CHO-TREx-OCTN2 inducible cell line)
assay-conditions: inhibition of 3H-carnitine uptake, CHO-TREx-hOCTN2 cells induced to express hOCTN2
property-name: IC50 (µM)
The reply should contain only the number, in µM.

Problem: Give reported IC50 for C[N+](C)(C)CC(O)CC(=O)[O-] (stereo not shown) [Carnitine, carnitine] (hOCTN2 (Homo sapiens))
Solution: 6.3

Each recorded value in this set is attributed to patent US7704696B2.
